Tested on: MS2 coat protein
Assay: apparent Kd, MS2 coat protein; higher = weaker binding; RNA-MaP array
Conditions: ligand present: flavin mononucleotide; designed as: ON switch for flavin mononucleotide
Answer false if apparent Kd is under 20 nM, and true if it is 20 nM or more.

Illustrative cases are given below, each with its answer.
>  <ORDERED RESIDUES>
AGAUCUAACGCAGGAUAUAGUGCGGGAAAACCUAAACAUGAGGAUCACCCAUGUCUGCUACAAAGCUAGAAGGGCGUUCGGGAA

>  <ASSIGNED LABEL>
true

$$$$
>  <ORDERED RESIDUES>
CUUCGGCCCAGGGAGAUGACCACAUGAGGAUCACCCAUGUACAGAAGGAGUAUCGGUAGGCCAUACUAGGAUAUGUGAAUAGAC

>  <ASSIGNED LABEL>
true

$$$$
>  <ORDERED RESIDUES>
AAUAAACAGUAGAAGGCUGAUACCUACAAAAGUCGAAGACAUGAGGAUCACCCAUGUCAGUCAUCAGAGGAUAUACGUGAAUCG

>  <ASSIGNED LABEL>
false

$$$$
>  <ORDERED RESIDUES>
AGAACCAUAGUAGGAUAUGAGACGUUAUUGGUAACAGAAGGACUAGCUGUAACAUGAGGAUCACCCAUGUGGGCCGGACAGAGG

>  <ASSIGNED LABEL>
false

$$$$

Request: Assess whether reported apparent Kd for `AAACUACGACAUGAGGAUCACCCAUGUACUCCGCUAACUACACAGGAUAUAGUGAGGCCAGAGCUCUAGAAGGGUGUUAAUACG` sits at 20 nM or higher.
Response: true

Request: Assess whether reported apparent Kd for `GUUGUCAUCCAAGGAUAUUGUAAAAGGAGUGGGCAAGAAGGUGGAGAGCAUUGAUGAAGGUACACAUGAGGAUCACCCAUGUUC` sits at 20 nM or higher.
Response: false
